The measurements presented in this section are drawn from ChEMBL document CHEMBL1649173.

# TEST PROTOCOL: Tmax in fed state healthy human at 1200 mg, po administered as single dose
# Type: ADME, organism-based
# TEST SETTINGS: in vivo
READOUT TYPE: Tmax (h)
Numbers only, in h.

[in] Entry COP(=O)(c1cc(C)cc(/C=C/C#N)c1)c1c(C(N)=O)[nH]c2ccc(Cl)cc12 (stereo unspecified) : reported Tmax = ?
[out] 10.1

---

# TEST PROTOCOL: Cmax in fasted state healthy human at 200 mg, po administered as single dose
# Format: ADME, organism-based
# Design: dose 200 mg, route oral
# TEST SETTINGS: in vivo
READOUT TYPE: Cmax (ng/mL)
Give bare numbers, in ng/mL.

[in] Entry COP(=O)(c1cc(C)cc(/C=C/C#N)c1)c1c(C(N)=O)[nH]c2ccc(Cl)cc12 (stereo unspecified) : reported Cmax = ?
[out] 700
